ASSAY_NAME: Solubility of the compound
Type: physicochemical
Decision: solubility >= 4 µg/mL yields 1, all other cases yield 0.

Determine whether this compound has solubility no lower than 4 µg/mL: COc1ccc(CNC(=O)c2ccc3ncn(Cc4ccc(C(=O)O)cc4)c(=O)c3c2)cc1 1

Determine whether this compound has solubility no lower than 4 µg/mL: COc1ccc(CNC(=O)c2cc3c(=O)n(Cc4ccc(C(=O)O)cc4)cnc3cn2)cc1 1

Determine whether this compound has solubility no lower than 4 µg/mL: O=C(O)c1ccc(Cn2cnc3ccc(C#CCc4ccccc4)cc3c2=O)cc1 0

Determine whether this compound has solubility no lower than 4 µg/mL: COc1cccc(CNC(=O)c2cc3c(=O)n(Cc4ccc(C(=O)O)cc4)cnc3cn2)c1 1

Determine whether this compound has solubility no lower than 4 µg/mL: COc1cccc(CNC(=O)c2cc3c(=O)n(Cc4ccc(C(=O)O)cc4)cnc3cc2F)c1 1

Determine whether this compound has solubility no lower than 4 µg/mL: COc1ccc(CC#Cc2ccc3ncn(Cc4ccc(C(=O)O)cc4)c(=O)c3c2)cc1 1

Determine whether this compound has solubility no lower than 4 µg/mL: COc1ccc(CNC(=O)c2ccc3ncn(Cc4ccc(OC)cc4)c(=O)c3c2)cc1 0

Determine whether this compound has solubility no lower than 4 µg/mL: O=c1c2cc(C#CCc3ccccc3)ccc2ncn1Cc1cc(F)c(O)c(F)c1 0

Determine whether this compound has solubility no lower than 4 µg/mL: O=C(O)c1ccc(Cn2cnc3ccc(C#CCn4ccnc4)cc3c2=O)cc1 1
